A compilation of IC50 values for Cyclin-dependent kinase 2 (Homo sapiens, UniProt P24941) from the published literature.

# Smiles string, Uom, IC50
measured = [
    ("CN1CCN(C(=O)c2ccc(NC(=O)c3n[nH]cc3Nc3ncnc4sccc34)cc2)CC1", "nM", 8.42),
    ("CN(C)C(=S)c1cccc(Nc2nc(OCC3CCCCC3)c3nc[nH]c3n2)c1", "nM", 5700),
    ("COc1ccc2c(c1)C(=NNC(=O)c1ccc(Nc3ncnc4[nH]ccc34)cc1)C(=O)N2", "nM", 131),
    ("CNC(=O)Cc1cccc(Nc2nc(OCC3CCCCC3)c3nc[nH]c3n2)c1", "nM", 320),
    ("O=S(=O)(Cc1cccc(Nc2nc(OCC3CCCCC3)c3nc[nH]c3n2)c1)N1CCCCC1", "nM", 1600),
    ("O=C(Cc1cccc(Nc2nc(OCC3CCCCC3)c3nc[nH]c3n2)c1)NCCCc1ccccc1", "nM", 10000),
    ("NC(=S)c1cccc(Nc2nc(OCC3CCCCC3)c3nc[nH]c3n2)c1", "nM", 330),
    ("Nc1cc(-c2c[nH]c3ccccc23)nn1-c1nc(Nc2ccccc2)nc(N2CCOCC2)n1", "nM", 112),
]
